pIC50 values by entry
# system.tested: D. plexippus-Na^+/K^+-ATPase (Danaus plexippus)
# Sequence (K0G7C4 1-1009): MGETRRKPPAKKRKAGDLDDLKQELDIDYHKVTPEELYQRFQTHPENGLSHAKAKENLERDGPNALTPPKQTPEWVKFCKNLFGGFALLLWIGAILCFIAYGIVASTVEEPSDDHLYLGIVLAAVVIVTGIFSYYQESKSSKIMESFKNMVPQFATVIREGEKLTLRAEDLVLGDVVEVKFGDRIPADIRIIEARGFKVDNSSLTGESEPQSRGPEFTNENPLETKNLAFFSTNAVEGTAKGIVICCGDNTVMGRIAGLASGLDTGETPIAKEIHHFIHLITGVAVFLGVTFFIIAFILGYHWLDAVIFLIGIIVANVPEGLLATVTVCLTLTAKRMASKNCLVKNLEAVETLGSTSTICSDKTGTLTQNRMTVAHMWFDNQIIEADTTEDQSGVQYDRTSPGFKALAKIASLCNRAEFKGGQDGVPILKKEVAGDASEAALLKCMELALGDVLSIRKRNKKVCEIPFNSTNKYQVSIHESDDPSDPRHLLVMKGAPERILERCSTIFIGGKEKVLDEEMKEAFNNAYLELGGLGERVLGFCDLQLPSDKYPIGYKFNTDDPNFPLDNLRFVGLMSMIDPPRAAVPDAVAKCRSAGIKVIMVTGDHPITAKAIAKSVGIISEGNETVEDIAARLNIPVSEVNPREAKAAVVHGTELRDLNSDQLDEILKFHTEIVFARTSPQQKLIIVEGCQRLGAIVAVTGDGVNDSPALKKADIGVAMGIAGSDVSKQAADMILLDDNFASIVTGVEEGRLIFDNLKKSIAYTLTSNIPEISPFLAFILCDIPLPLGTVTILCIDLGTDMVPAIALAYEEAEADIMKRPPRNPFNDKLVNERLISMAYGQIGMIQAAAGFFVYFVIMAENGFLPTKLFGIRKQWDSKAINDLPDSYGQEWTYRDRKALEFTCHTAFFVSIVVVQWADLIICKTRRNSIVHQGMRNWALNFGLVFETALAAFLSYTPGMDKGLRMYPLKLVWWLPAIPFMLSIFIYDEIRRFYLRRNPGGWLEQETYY
# protocol.notes: In vitro inhibition assay of D. plexippus Na+/K+-ATPase (phosphate release)
# condition: read-out: IC50 D. plexippus- Na^+/K^+-ATPase; Na+/K+-ATPase extracted from butterfly brains
pIC50: −log10 of the molar value.
assay.endpoint: pIC50

compound="CC12CCC(O)CC1CCC1C2CCC2(C)C(C3=CC(=O)OC3)CCC12O (stereo not drawn)" measured=4.80
compound=C[C@]12CC[C@H](O)C[C@H]1CC[C@@H]1[C@@H]2CC[C@]2(C)[C@@H](C3=CC(=O)OC3)CC[C@]12O measured=4.61
compound=CO[C@H]1C[C@H](O[C@H]2CC[C@@]3(C)[C@H](CC[C@@H]4[C@@H]3CC[C@]3(C)[C@@H](C5=CC(=O)OC5)[C@@H](OC(C)=O)C[C@]43O)C2)O[C@@H](C)[C@@H]1O measured=5.43
compound=C[C@@H]1O[C@@H](O[C@H]2CC[C@]3(C=O)[C@H]4CC[C@]5(C)[C@@H](c6ccc(=O)oc6)CC[C@]5(O)[C@@H]4CC[C@]3(O)C2)[C@H](O)[C@H](O)[C@H]1O[C@@H]1O[C@H](CO)[C@@H](O)[C@H](O)[C@H]1O measured=6.07
compound="C[C@H]1O[C@@H](O[C@H]2[C@@H](O)C[C@H](O[C@H]3[C@@H](O)C[C@H](O[C@H]4CC[C@@]5(C)[C@H](CC[C@@H]6[C@@H]5CC[C@]5(C)[C@@H](C7=CC(=O)OC7)CC[C@]65O)C4)O[C@@H]3C)O[C@@H]2C)C[C@H](O)[C@@H]1O [digitoxin, reference compound]" measured=4.83
compound=C[C@]12CC[C@H]3[C@@H](CC[C@]4(O)C[C@@H](O)CC[C@]34C=O)[C@@]1(O)CC[C@@H]2C1=CC(=O)OC1 measured=4.19
compound=C[C@]12CC[C@H](O[C@@H]3O[C@H](CO[C@@H]4O[C@H](CO)[C@@H](O)[C@H](O)[C@H]4O)[C@@H](O)[C@H](O)[C@H]3O)C[C@@H]1CC[C@@H]1[C@@H]2CC[C@]2(C)[C@@H](C3=CC(=O)OC3)CC[C@]12O measured=4.73
compound=C[C@]12CC[C@H](O[C@@H]3O[C@H](CO)[C@@H](O)[C@H](O)[C@H]3O)C[C@@H]1CC[C@@H]1[C@@H]2CC[C@]2(C)[C@@H](C3=CC(=O)OC3)CC[C@]12O measured=5.19
compound=C[C@@H]1C[C@@H](O)[C@]2(O)O[C@@H]3C[C@@]4(C=O)[C@@H](CC[C@@H]5[C@@H]4CC[C@]4(C)[C@@H](C6=CC(=O)OC6)CC[C@]54O)C[C@H]3O[C@@H]2O1 measured=5.67

Values from paper PMC6172315
